target: desmolase (CSCC); test: Cholesterol side chain cleavage (CSCC, desmolase) inhibition, mitochondrial fraction from human placenta or bovine adrenals; conditions: substrate 5 μM, 30 min, 37° C., read-out: IC-50 CSCC (desmolase)
reportedMetric: IC50 (µM)
Report only the number, with the unit µM understood.

In the examples that follow, each entry is paired with its recorded IC50.
- compound: "Fc1ccc(CCCC(c2ccc(F)cc2)c2c[nH]cn2)cc1 (stereo not drawn) [Compound 15c]"
  resultNumber: 29
- compound: "Cc1ccccc1CCCCC(c1ccc(F)cc1)c1c[nH]cn1 (stereo not drawn)"
  resultNumber: 16
- compound: "Cc1ccc(C(CCCc2c[nH]cn2)c2ccc(C)cc2)cc1 [Compound 17a]"
  resultNumber: 110

Field IC50 (entry c1ccc(CCC(c2ccccc2)c2c[nH]cn2)cc1 (stereo not drawn) ) reads 7.5

Just so you know, measured IC50 for Cc1cccc(CCCCC(c2ccc(F)cc2)c2c[nH]cn2)c1 (stereo not drawn) came out at 57

The compound Fc1ccc(CCC(Cc2c[nH]cn2)c2ccc(F)cc2)cc1 (stereo not drawn) [Compound 18c] showed IC50 equal to 20
